These measurements were taken from patent US12594349B2.

Tested on: human PCSK9 locus
Assay Remarks: Secreted PCSK9 by ELISA in Huh7 cells transfected with mRNA and gRNA
Format: cell-based
Study Conditions: Huh7 cells, LTRP5-ADD-ZIM3 mRNA, 50 ng mRNA:25 ng gRNA, day 6, relative to non-targeting gRNA control
Each entry below lists one item and its recorded Percent reduction in PCSK9 secretion value.
Parameter Measured: Percent reduction in PCSK9 secretion (%)

| Substance | Measured |
| --- | --- |
| TG-06-129 (guide UUUUACACACCAUGUUCAAG; listed as RNA, chemistry not given here) | 27.16 |
| TG-06-149 (guide AGCCCAGUUAGGAUUUGGGA; listed as RNA, chemistry not given here) | 74.26 |
| TG-06-135 (guide GGAAAGCUGAGCUUGUGCCU; listed as RNA, chemistry not given here) | 68.82 |
| TG-06-002 (guide ACCGCUGCGCCAAGGUGCGG; listed as RNA, chemistry not given here) | 0.4 |
| TG-06-125 (guide AGAAAGAGCAAGCCUCAUGU; listed as RNA, chemistry not given here) | 69.7 |
| TG-06-146 (guide GAAGUCUCACUGGUCAGCAG; listed as RNA, chemistry not given here) | 50.36 |
| TG-06-142 (guide UUCCACUGGCCUUAACCUGG; listed as RNA, chemistry not given here) | 62.48 |
| TG-06-158 (guide GGAGCAGGGCGCGUGAAGGG; listed as RNA, chemistry not given here) | 88.59 |
| TG-06-172 (guide GCUGAAACAGAUGGAAUACU; listed as RNA, chemistry not given here) | 45.99 |
| TG-06-132 (guide AGAAGAUUCAAUUUGCAAAG; listed as RNA, chemistry not given here) | 31.11 |
| TG-06-005 (guide GUGCUCGGGUGCUUCGGCCA; listed as RNA, chemistry not given here) | 18.47 |
| TG-06-140 (guide AAACUUAGCCUGGACCCCCU; listed as RNA, chemistry not given here) | 25.04 |
| TG-06-150 (guide UCCCUCUGCGCGUAAUCUGA; listed as RNA, chemistry not given here) | 77.73 |
| TG-06-152 (guide GCCUCGCCCUCCCCAAACAG; listed as RNA, chemistry not given here) | 55.09 |
| TG-06-344 (guide CAGUUUCUGCCUCGCCGCGG; listed as RNA, chemistry not given here) | 0.01 |
